Test system: AhR (dioxin response elements)
Procedure Details: DRE12-6 luciferase assay (HepG2 with dioxin response elements)
Condition: human, fold induction of luciferase activity above DMSO, DRE12-6 cells, 28 hours; TCDD 10 nanomoles per liter, omeprazole 25, 2-AAF 100, DMBA 20 micromoles per liter
Readout Name: fold induction at 28 h
Answer field: number only, no words.

QUERY: Consider the compound Clc1cc2c(cc1Cl)Oc1cc(Cl)c(Cl)cc1O2 [TCDD] and give its measured fold induction at 28 h.
RESULT: 20

====

Quick list: fold induction per entry.
Test system: AhR (dioxin response elements)
Procedure Details: in vitro
Condition: human, fold induction of luciferase activity above DMSO, DRE12-6 cells, 28 hours; TCDD 10 nanomoles per liter, omeprazole 25, 2-AAF 100, DMBA 20 micromoles per liter
Answer field: number only, no words.

QUERY: Consider the compound O=c1cc(-c2ccccc2)oc2cc(O)cc(O)c12 and give its measured fold induction.
RESULT: 4.2

QUERY: Consider the compound c1ccc2cc3c(ccc4ccccc43)cc2c1 and give its measured fold induction.
RESULT: 28.7

====

Test system: PXR / CYP3A4 response elements
Procedure Details: DPX2 (Hepg-hPXR/3A4-Luc) luciferase assay
Condition: human, fold induction of luciferase activity above DMSO, DPX2 cells, kava-kava 100 micrograms per milliliter, chrysin 25 micromoles per liter
Readout Name: fold induction at 48 h
Answer field: number only, no words.

QUERY: Consider the compound CC(=O)Nc1ccc2c(c1)Cc1ccccc1-2 and give its measured fold induction at 48 h.
RESULT: 24.8

Values from patent US20040077080A1
